Where do these numbers come from? They come from PubChem BioAssay AID845.

Test: cytotoxicity in IL-1B stimulated HUVEC, primary screen, cytotoxicity control for IL-1B NFkB translocation project, imaging, Hoechst nuclear count, IL-1B stimulus (AID 845)
Conditions: HUVEC cell count loss, at 2 µM
Out of some 94,000 compounds screened, about 390 (0.41%) were called active.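 Rule for the calls: active = cell count reduction more than 3 SD above the screen-wide mean (cut at about 70% in these data); inactive = the rest.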 The entries come from a sample that favours actives as a whole.
Your answer must be one of the following: active, inactive

The examples below pair each entry with its known result.
Tell me the recorded outcome of this test for `CCc1ccc(CNC(=O)CCc2nc(-c3cccs3)no2)cc1` .
inactive

Tell me the recorded outcome of this test for `CC1(C)CC(=O)C=C(NCCCN2CCCC2=O)C1` .
active

Tell me the recorded outcome of this test for CCOC(=O)c1ccc(N2C(=O)CC(N(C)Cc3ccccc3)C2=O)cc1 (stereo not given) .
inactive

Tell me the recorded outcome of this test for `COc1ccc(-c2oc(/N=C/N3CCCC3)c(C#N)c2-c2ccc(OC)cc2)cc1` .
inactive

Tell me the recorded outcome of this test for CCOC(=O)c1ccc(N2C(=O)CC(N3CC(C)OC(C)C3)C2=O)cc1 (stereo not given) .
active

***
Tell me the recorded outcome of this test for `COc1ccc(/C=N\NC(=O)c2sc(N)nc2C)cc1OC` .
inactive

Tell me the recorded outcome of this test for CCOCCCNC(=O)C(NC(=O)c1ccc(=O)[nH]c1)c1ccc(Cl)cc1 (stereo not given) .
inactive

Tell me the recorded outcome of this test for `Cc1ccc(O/C=C2\OC(=O)c3ccccc32)cc1` .
inactive

Tell me the recorded outcome of this test for `Cc1c(C(=O)NCc2ccccc2)cnn1-c1ccccc1` .
inactive

Tell me the recorded outcome of this test for `COc1ccc(F)cc1S(=O)(=O)Nc1ccc2c(c1)OCO2` .
inactive
